Each recorded value in this set is attributed to paper PMC4336329.

# targetUnderTest: human ether-à-go-go-related gene (hERG) potassium channel (human, UniProt Q12809);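 note: peak tail current of the secondary pulse compared with the same well before compound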
# Sequence (Q12809 whole entry, looked up): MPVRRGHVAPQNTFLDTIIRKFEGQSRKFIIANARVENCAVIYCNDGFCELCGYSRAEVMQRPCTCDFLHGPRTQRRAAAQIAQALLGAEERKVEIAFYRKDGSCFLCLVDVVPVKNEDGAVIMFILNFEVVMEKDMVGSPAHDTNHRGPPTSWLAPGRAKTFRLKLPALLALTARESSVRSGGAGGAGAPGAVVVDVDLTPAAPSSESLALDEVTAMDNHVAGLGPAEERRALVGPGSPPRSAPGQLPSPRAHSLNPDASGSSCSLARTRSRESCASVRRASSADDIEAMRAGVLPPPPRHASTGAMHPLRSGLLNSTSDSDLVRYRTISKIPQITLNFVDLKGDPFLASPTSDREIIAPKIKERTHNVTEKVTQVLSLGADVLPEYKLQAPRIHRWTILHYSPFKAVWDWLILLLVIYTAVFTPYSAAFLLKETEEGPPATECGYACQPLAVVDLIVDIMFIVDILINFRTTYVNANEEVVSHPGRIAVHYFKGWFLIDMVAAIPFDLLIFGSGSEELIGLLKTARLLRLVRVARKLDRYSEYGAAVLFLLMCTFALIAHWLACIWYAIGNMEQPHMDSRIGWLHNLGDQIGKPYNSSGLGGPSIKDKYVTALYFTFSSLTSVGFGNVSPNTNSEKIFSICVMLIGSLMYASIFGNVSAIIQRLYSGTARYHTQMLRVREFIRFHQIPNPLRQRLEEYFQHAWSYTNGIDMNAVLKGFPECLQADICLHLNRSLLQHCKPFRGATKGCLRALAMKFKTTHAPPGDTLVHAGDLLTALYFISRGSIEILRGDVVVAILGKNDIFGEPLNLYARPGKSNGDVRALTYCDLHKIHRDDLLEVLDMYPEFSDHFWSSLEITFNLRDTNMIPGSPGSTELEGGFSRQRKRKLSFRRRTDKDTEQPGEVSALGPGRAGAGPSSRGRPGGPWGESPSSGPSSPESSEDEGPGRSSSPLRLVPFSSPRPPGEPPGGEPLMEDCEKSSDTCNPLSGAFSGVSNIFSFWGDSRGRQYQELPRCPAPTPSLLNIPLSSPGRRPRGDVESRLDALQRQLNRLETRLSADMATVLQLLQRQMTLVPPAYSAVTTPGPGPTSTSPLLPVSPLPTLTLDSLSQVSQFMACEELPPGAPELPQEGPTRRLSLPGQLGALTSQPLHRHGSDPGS
# protocol: primary screen, population patch clamp on CHO cells stably expressing hERG; higher = less effect of the substance
About 14,000 (4.5%) of roughly 310,000 compounds showed an effect of 50% or more. Effects have a minus sign here. The entries come from a sample that favours strong results as a whole.
assayEndpoint: hERG current change (%, negative = inhibition) at 10uM (%)
Give bare numbers, in %.

Consider the worked cases shown below.
Cc1sc2nc(CN3CCCCC3)nc(Cl)c2c1C; -24.5
Cc1cccc(Oc2nc(CN3CCOCC3)nc3sc4c(c23)CCCC4)c1; -29.7
COc1ccc2c(-c3ccccc3)cc(SC(C)C(N)=O)nc2c1 (centres unmarked); 19.3
CCOc1ccc(OCc2ccc(C(=O)N3CCc4ccccc4C3)o2)cc1; -10.4
COc1ccc2c(-c3ccccc3)cc(SCC(=O)N(C)C)nc2c1; -22.9
CC1CCc2c(sc3nc(CN4CCOCC4)nc(N4CCc5ccccc5C4)c23)C1 (centres unmarked); -8.23

For every record below, what is its hERG current change (%, negative = inhibition) at 10uM?
1. Cc1ccsc1S(=O)(=O)N1CCCC(CCC(=O)NCc2ccccc2F)C1 (centres unmarked)
2. Cc1ccc(CCNC(=O)CN(C)S(=O)(=O)c2ccc3c(c2)c(=O)n(C)c(=O)n3C)cc1
3. COc1cc2c(cc1OC)CN(c1nc(CN3CCOCC3)nc3sc4c(c13)CCC(C)C4)CC2 (centres unmarked)
4. c1nc(N2CCOCC2)c2c3c(sc2n1)CCCC3
5. COc1cc2c(cc1OC)CN(c1ccc(C(F)(F)F)cn1)CC2

output:
1. 5.38
2. -11.7
3. -67.5
4. -7.14
5. 15.9
